# Assay Notes: qHTS assay to test for compound auto fluorescence at 460 nm (blue) in HepG2 cells (AID 720687)
# Cond: autofluorescence 405/460 nm, 1 h; series mostly up to 91.3 µM
The source made the active and inactive calls. Calls come from the whole dose curve; as a rule, active = well fitted curve in the direction sought with a large enough effect in the repeat runs; inconclusive = weak or mixed curves; inactive = flat fitted curve, though single readings scatter.
Reported Endpoint: fluorescence, % of fluorescent control

// solved cases for fluorescence, % of fluorescent control follow
Compound	fluorescence, % of fluorescent control
Nc1nccs1	inactive
Oc1cc(O)c(Cl)cc1Cl	inactive
CC(=O)Nc1ccccc1C	inactive
CC1(C)C(=O)N(Br)C(=O)N1Cl	inactive

input: Please look up its fluorescence, % of fluorescent control: "CCCOC(=O)c1ccc(C(=O)OCCC)nc1"
output: inactive

input: Please look up its fluorescence, % of fluorescent control: "CNC(=S)NC"
output: inactive

input: Please look up its fluorescence, % of fluorescent control: "Cc1cc(O)c(C(C)C)cc1Cl"
output: inactive

---

# Assay Notes: qHTS assay for small molecule disruptors of the mitochondrial membrane potential (AID 720635)
# Cond: HepG2 mitochondrial membrane potential, Mito-MPS dye ratio; series mostly up to 83.2 µM
Records with an inconclusive call do not appear. Activity calls are given as the source filed them. The call rests on the fitted dose curve; in most records, active means well fitted inhibition curve with a large enough effect in the signal ratio in the repeat runs; inconclusive means weak or mixed curves, or effect the other way; inactive means flat fitted curve, though single readings scatter; the % refers to the signal ratio.
Log the outcome using a class from Yes (active), No (inactive)

Some solved entries appear below for comparison.
>>> df
                                   molecule  group_label
0  C(=C\c1ccccc1)/CN1CCN(C(c2ccccc2)c2ccccc2)CC1           No
1                       NC(=O)Nc1ccc(Cl)cc1           No
2  Fc1ccccc1[C@@H](F)COC1CCC(Nc2ncnc3[nH]ncc23)CC1 (stereo partly drawn)          Yes
3           CC1=NN(c2ccc(C(=O)O)cc2)C(=O)C1           No
4                       CCOC(=O)/C=C/C(=O)O           No
5          CC(Cl)C(Cl)Cl (stereo not drawn)           No
6                                    COCCOC           No

input: So what was the verdict on "CN1CCCN=C1/C=C/c1cccs1" in this test?
output: No

---

# Assay Notes: qHTS RealTime-Glo MT Cell Viability Assay in HepG2 cells - 40 hour (AID 1224870); note: nearly all actives have a fitted effect of over 50% in size
# Cond: RealTime-Glo luminescence; series mostly up to 76.8 µM
Results filed as inconclusive are left out. Active and inactive are the calls of the source. Calls come from the whole dose curve; as a rule, active = well fitted cell-killing curve with a large enough effect in the repeat runs; inconclusive = weak or mixed curves, or effect the other way; inactive = flat fitted curve, though single readings scatter.
Log the outcome using a class from t for active, f for inactive

input: So what was the verdict on "O=C(O)c1cccnc1C(=O)O" in this test?
output: f

---

# Assay Notes: qHTS assay to identify small molecule antagonists of the estrogen related receptor signaling pathway with the pleiotropic PPARgamma coactivator (PGC) from Tox21 10K library - cell viability counter screen (AID 1224840); note: nearly all actives have a fitted effect of over 40% in size
# Cond: PGC/ERR reporter cells viability, CellTiter-Fluor, 17.5 h; series mostly up to 92.4 µM
Records with an inconclusive call do not appear. Active and inactive are the calls of the source. The call rests on the fitted dose curve; in most records, active means well fitted cell-killing curve with a large enough effect in the repeat runs (not every such curve was filed as active); inconclusive means weak or mixed curves, or effect the other way; inactive means no such curve, though single readings can be large or run the other way.
Log the outcome using a class from active, inactive

input: So what was the verdict on "CC(C)C(=O)O" in this test?
output: inactive

---

# Assay Notes: A CellTox Green Cytotoxicity Assay to monitor cytotoxicity in HepG2 cells - 24 hour (AID 1224878); note: nearly all actives have a fitted effect of over 45% in size
# Cond: CellTox Green fluorescence; series mostly up to 76.8 µM
Results filed as inconclusive are left out. Active and inactive are the calls of the source. Calls follow the shape of the dose curve; as a rule, active = well fitted activation curve with a large enough effect in the repeat runs; inconclusive = weak or mixed curves; inactive = flat fitted curve, though single readings scatter.
Log the outcome using a class from active, inactive

>>> df
                                   molecule  group_label
0        O=C(O)c1c(O)c(-c2ccccc2)nc2ccccc12     inactive
1  COc1cc2c(cc1OC)-c1cc(=Nc3c(C)cc(C)cc3C)n(C)c(=O)n1CC2     inactive
2  C/C=C(\C)C(=O)OCCC(C)CCC=C(C)C (stereo not given)     inactive
3  Nc1nc(Cl)nc2c1ncn2[C@@H]1O[C@H](CO)[C@@H](O)[C@@H]1F     inactive
4                 C=CC(=C)CCCC(C)(C)OC(C)=O     inactive

input: So what was the verdict on "CNCCCC1c2ccccc2C=Cc2ccccc21" in this test?
output: active

input: So what was the verdict on "CC(C)(CCl)c1ccccc1" in this test?
output: inactive

input: So what was the verdict on "O=C(CCCN1CCC(O)(c2ccc(Br)cc2)CC1)c1ccc(F)cc1" in this test?
output: active

input: So what was the verdict on CCCCC(CC)C(=O)OCCOCCOCCOCCOC(=O)C(CC)CCCC (stereo not given) in this test?
output: inactive

input: So what was the verdict on CC(Cl)C(Cl)Cl (stereo not given) in this test?
output: inactive

input: So what was the verdict on "CCCCC/C(=C\c1ccccc1)CO" in this test?
output: inactive

input: So what was the verdict on "C[Si]1(C)O[Si](C)(C)O[Si](C)(C)O1" in this test?
output: inactive

input: So what was the verdict on "O=C(CCC1CCN(Cc2ccccc2)CC1)c1ccc2c(c1)NCCCC2" in this test?
output: inactive

input: So what was the verdict on "Cc1nc2ccccn2c(=O)c1CCN1CCC(C(=O)c2ccc(F)cc2)CC1" in this test?
output: inactive

input: So what was the verdict on "CC(C)CCCCCCOC(=O)CCCCC(=O)OCCCCCCC(C)C" in this test?
output: inactive

input: So what was the verdict on OCC1CC=CCC1 (stereo not given) in this test?
output: inactive

input: So what was the verdict on CC(=O)CC(c1ccc([N+](=O)[O-])cc1)c1c(O)c2ccccc2oc1=O (stereo not given) in this test?
output: inactive

input: So what was the verdict on "O=C(O)c1cccnc1C(=O)O" in this test?
output: inactive

input: So what was the verdict on "O=C1NCCN1" in this test?
output: inactive

input: So what was the verdict on "O=S1OCCO1" in this test?
output: inactive

input: So what was the verdict on "CO[C@@]12[C@H](COC(N)=O)C3=C(C(=O)C(C)=C(N)C3=O)N1C[C@@H]1N[C@@H]12" in this test?
output: active

input: So what was the verdict on "CCCCCCCC/C=C\CCCCCCCC(=O)OC(CO)CO" in this test?
output: inactive

input: So what was the verdict on "Cc1ccc(Nc2nccc(N(C)c3ccc4c(C)n(C)nc4c3)n2)cc1S(N)(=O)=O" in this test?
output: inactive

input: So what was the verdict on "N#C/C(=C1/SC[C@@H](c2ccc(Cl)cc2Cl)S1)n1ccnc1" in this test?
output: inactive

input: So what was the verdict on "Cc1cc(C(=C2C=CC(=Nc3ccc(S(=O)(=O)O)cc3S(=O)(=O)O)C=C2)c2ccc(Nc3ccc(S(=O)(=O)O)cc3)cc2)ccc1N" in this test?
output: inactive

---

# Assay Notes: Caspase-3/7 induction in HepG2 cells by small molecules, qHTS cell viability counter screen (AID 1346981); note: nearly all actives have a fitted effect of over 30% in size
# Cond: CellTiter-Fluor fluorescence, 17 h; series mostly up to 92.4 µM
# Description: U.S. Tox21 Program National Center for Advancing Translational Sciences [NCATS] NIH Chemical Genomics Center [NCGC] U.S. Environmental Protection Agency [EPA] National Institutes of Environmental Health Sciences [NIEHS] National Toxicology Program [NTP] U.S. Food and Drug Administration [FDA] Tox21 Assay Overview: Apoptosis is a process of programmed cell death and plays a central role in the development of multicellular organisms. […]
Inconclusive results are not listed. Activity calls are given as the source filed them. Calls come from the whole dose curve; as a rule, active = well fitted cell-killing curve with a large enough effect in the repeat runs; inconclusive = weak or mixed curves, or effect the other way; inactive = flat fitted curve, though single readings scatter.
Log the outcome using a class from active, inactive

Some solved entries appear below for comparison.
In [3]: df
Out[3]:
                                   molecule  group_label
0  CC(=O)OCC(=O)[C@H]1CC[C@H]2[C@@H]3CCC4=CC(=O)CC[C@]4(C)[C@H]3CC[C@]12C     inactive
1                                    COCCOC       active
2              CC(N)CN (stereo unspecified)     inactive
3                                  CCC(C)=O     inactive
4  CC(=O)OCC(=O)[C@@]12OC(C)(C)O[C@@H]1C[C@H]1[C@@H]3C[C@H](F)C4=CC(=O)C=C[C@]4(C)[C@@]3(F)[C@@H](O)C[C@@]12C     inactive

input: So what was the verdict on "CC(C)c1nnc2ccc(-c3ocnc3-c3cc(F)ccc3F)cn12" in this test?
output: inactive

input: So what was the verdict on "O=C(c1ccc(O)cc1)c1ccc(Cl)cc1" in this test?
output: inactive

input: So what was the verdict on "CCCc1c(OCCCOc2ccc(OCC(=O)O)cc2)ccc(C(C)=O)c1O" in this test?
output: inactive

input: So what was the verdict on "CC(=O)[C@H]1CC[C@H]2[C@@H]3C[C@H](C)C4=CC(=O)CC[C@]4(C)[C@H]3[C@@H](O)C[C@]12C" in this test?
output: inactive

input: So what was the verdict on CCCCC(CC)COC(=O)COc1ccc(Cl)cc1C (stereo unspecified) in this test?
output: inactive
